- system: Cynomologus monkey (cyno) proMMP9 (Cynomologus monkey)
- assay: cell-based or functional assay
measured_endpoint: IC50 (nM), MMP3/MMP9 gelatin assay

* F20-VH-GL1-V4-V9-V14/B03-VL-GL1c (antibody, human IgG4 S228P, V domains shown) VH: EVQLVESGGGLVQPGRSLRLSCAASGFTFNDYPMHWVRQAPGKGLEWVSGISSRSGSVGYAESVKGRFTISRDNAKNSLYLQMNSLRAEDTALYYCARDKIYYGSGSYDFYYYYGIDVWGQGTTVTVSS VL: SSELTQDPAVSVALGQTVRITCQGDSLRSYYASWYQQKPGQAPVVVIYGKNNRPSGIPDRFSGSSSGNTVSLTITGAQAEDEADYYCQSRDNIGNHRVVLFGGGTKLTVL | 3.75
* F20-VH-GL1-V4-V9/B08-VL-GL6c (antibody, human IgG4 S228P, V domains shown, The light chain constant region is not tied to it; also called F20-VH/B08-VLc variant; F20-VH/B08-VLc) VH: EVQLVESGGGLVQPGRSLRLSCAASGFTFNDYPMHWVRQAPGKGLEWVSGISSRSGSVGYAESVKGRFTISRDNAKNSLYLQMNSLRAEDTALYYCARDKIYYGSGSYDFYYYYGMDVWGQGTTVTVSS VL: QSALTQPASVSGSPGQSITISCTGTSNDVGAYNRVSWYQQHPGKAPKLMIYGVSNRPSGVSNRFSGSKSGNTASLTISGLQAEDEADFYCTSYSSSTTSYVVFGGGTKVTVL | 5.86
* F20-VH-GL1/B03-VL-GL1c (antibody, human IgG4, V domains shown) VH: EVQLVESGGGLVQPGRSLRLSCAASGFTFNDYPMHWVRQAPGKGLEWVSGISSNSGSVGYADSVKGRFTISRDNAKNSLYLQMNSLRAEDTALYYCARDKIYYGSGSYDFYYYYGMDVWGQGTTVTVSS VL: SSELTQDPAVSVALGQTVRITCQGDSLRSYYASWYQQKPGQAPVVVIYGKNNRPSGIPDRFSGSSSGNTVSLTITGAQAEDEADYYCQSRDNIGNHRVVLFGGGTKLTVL | 3.85
